Experiment notes: Pharmacokinetics of YC-001 in mouse plasma
Format: in vivo, C57BL/6 mice
Test settings: C57BL/6J, mouse, plasma, ip; i.p. 200 mg kg^−1 bw; read-out: plasma half-life (T1/2)

- Molecule: "O=C1OCC(c2ccc(Cl)s2)=C1c1cccs1 [YC-001]"
  half-life [min]: 34.5

----------
Target entity: bovine opsin (Bos taurus, UniProt P02699)
Construct: ROS membranes were isolated from bovine retinas under dim red light
Sequence (P02699 whole entry): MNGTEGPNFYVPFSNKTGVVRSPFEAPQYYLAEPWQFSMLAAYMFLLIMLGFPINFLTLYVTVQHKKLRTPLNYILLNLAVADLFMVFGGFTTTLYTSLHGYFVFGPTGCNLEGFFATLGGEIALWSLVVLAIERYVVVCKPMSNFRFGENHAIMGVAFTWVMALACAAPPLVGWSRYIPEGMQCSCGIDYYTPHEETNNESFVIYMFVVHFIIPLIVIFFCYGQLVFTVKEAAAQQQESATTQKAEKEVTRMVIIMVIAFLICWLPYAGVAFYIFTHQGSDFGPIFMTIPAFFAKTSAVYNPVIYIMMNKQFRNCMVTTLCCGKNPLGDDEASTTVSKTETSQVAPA
Experiment notes: Isorhodopsin pigment regeneration in ROS disc membranes (absorbance at 487 nm)
Test settings: read-out: IC50, regenerated isorhodopsin
pIC50: −log10 of the molar value.

- Mol smiles: "O=C1OCC(c2ccc(Cl)s2)=C1c1cccs1"
  Target entity: "bovine opsin (Bos taurus, UniProt P02699)"
  pIC50: 4.94

Provenance of the data: paper PMC5958115
